What follows is a collection of IC50 values obtained with human ACC2 (Homo sapiens).
Sequence (O00763 129-2458 limits assumed): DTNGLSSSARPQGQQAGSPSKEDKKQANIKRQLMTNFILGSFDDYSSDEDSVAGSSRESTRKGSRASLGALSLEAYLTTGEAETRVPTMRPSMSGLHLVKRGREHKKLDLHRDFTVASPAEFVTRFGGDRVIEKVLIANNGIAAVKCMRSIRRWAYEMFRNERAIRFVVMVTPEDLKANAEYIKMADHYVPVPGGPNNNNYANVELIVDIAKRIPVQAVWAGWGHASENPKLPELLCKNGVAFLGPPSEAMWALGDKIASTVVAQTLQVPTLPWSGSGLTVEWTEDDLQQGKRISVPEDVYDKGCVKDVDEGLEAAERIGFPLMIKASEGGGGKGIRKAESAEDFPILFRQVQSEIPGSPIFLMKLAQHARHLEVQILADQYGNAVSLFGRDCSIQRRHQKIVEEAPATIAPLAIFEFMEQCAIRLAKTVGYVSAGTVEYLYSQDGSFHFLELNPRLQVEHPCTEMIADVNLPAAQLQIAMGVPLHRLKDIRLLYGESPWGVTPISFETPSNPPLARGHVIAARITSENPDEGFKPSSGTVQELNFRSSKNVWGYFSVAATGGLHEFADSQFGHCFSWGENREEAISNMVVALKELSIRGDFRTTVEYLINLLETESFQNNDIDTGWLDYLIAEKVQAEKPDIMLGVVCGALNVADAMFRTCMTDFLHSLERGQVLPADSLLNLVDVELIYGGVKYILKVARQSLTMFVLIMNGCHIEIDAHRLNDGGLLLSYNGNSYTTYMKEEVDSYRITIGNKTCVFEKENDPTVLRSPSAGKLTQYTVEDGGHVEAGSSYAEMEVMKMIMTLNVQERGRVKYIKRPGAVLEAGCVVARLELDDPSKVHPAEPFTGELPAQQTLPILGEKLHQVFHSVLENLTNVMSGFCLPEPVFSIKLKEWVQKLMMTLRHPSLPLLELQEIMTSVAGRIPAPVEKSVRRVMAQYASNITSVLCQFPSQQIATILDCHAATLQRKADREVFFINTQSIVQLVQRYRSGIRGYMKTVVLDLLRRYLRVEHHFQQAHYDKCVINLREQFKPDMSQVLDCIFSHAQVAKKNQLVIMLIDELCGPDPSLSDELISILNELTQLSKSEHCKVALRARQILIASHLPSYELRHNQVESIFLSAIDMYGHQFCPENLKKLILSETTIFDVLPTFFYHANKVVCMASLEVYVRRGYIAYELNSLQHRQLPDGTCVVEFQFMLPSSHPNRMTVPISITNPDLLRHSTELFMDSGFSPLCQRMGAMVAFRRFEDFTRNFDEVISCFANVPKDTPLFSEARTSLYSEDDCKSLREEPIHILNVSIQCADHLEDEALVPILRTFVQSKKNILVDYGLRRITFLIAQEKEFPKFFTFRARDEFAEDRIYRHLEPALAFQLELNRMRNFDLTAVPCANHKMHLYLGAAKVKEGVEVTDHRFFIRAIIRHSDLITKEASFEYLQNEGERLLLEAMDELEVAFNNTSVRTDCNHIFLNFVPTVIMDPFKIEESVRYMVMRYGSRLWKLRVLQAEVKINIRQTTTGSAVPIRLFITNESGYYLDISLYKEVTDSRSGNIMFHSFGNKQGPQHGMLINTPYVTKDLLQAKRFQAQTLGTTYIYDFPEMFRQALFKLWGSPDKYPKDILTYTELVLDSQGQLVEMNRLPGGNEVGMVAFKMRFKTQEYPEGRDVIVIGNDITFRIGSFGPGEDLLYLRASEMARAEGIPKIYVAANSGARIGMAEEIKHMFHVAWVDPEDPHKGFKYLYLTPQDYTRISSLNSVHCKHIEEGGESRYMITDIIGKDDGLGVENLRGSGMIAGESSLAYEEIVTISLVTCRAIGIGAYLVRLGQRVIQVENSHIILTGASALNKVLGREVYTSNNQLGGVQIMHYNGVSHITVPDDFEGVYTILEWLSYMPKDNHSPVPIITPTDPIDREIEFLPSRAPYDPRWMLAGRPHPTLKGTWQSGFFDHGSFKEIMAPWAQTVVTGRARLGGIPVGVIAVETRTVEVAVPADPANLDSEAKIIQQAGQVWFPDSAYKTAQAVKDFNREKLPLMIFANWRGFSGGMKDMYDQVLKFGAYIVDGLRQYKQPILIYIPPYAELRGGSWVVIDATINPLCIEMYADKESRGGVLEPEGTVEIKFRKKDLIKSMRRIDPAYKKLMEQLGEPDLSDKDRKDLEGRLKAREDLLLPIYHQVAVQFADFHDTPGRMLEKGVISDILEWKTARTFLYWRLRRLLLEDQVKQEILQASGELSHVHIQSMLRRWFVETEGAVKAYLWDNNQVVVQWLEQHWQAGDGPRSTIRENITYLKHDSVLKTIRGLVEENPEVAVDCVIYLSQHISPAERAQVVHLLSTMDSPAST
All answers are understood in µM, so give the number only.

Solved cases (2 shown):
• CCNC(=O)C(C)c1ccc(C#Cc2cnn(-c3ccccc3)c2)cc1 (stereo not drawn) = 0.44
• CCNC(=O)C(C)c1ccc(C#Cc2ccc(OC3CCCOC3)cc2)cc1 (stereo not drawn) = 0.87

Task: So what's the measured IC50 for this one? CCNC(=O)C(C)c1ccc(C#Cc2ccc3c(c2)C(=O)CC3)cc1 (stereo not drawn)
Result: 2.2

Task: So what's the measured IC50 for this one? CCNC(=O)C(C)c1ccc(C#Cc2ccnc(Oc3cncnc3)c2)cc1 (stereo not drawn)
Result: 2.9

Task: So what's the measured IC50 for this one? CCNC(=O)C(C)c1ccc(C#Cc2ccc(OC(CC)COC)cc2)cc1 (stereo not drawn)
Result: 1.4

Task: So what's the measured IC50 for this one? CCOc1ccc(C#Cc2ccc(C(C)C(=O)NC)cc2)cc1 (stereo not drawn)
Result: 0.22

Task: So what's the measured IC50 for this one? CCOc1ccc(C#Cc2ccc(C(C)C(=O)NC3CCOC3)cc2)cc1 (stereo not drawn)
Result: 1.8

Task: So what's the measured IC50 for this one? CCCNC(=O)C(C)c1ccc(C#Cc2ccc(OCC)cc2)cc1 (stereo not drawn)
Result: 0.61

Task: So what's the measured IC50 for this one? CCNC(=O)C(C)c1ccc(C#Cc2ccc3cccnc3c2)cc1 (stereo not drawn)
Result: 2.5
